Tested on: INS1
Experiment: beta cell apoptosis inhibitors, cytokine rescue, dose response, luminescence, retest (AID 449756);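 further: cell death triggered by IL-1 beta plus TNF-alpha plus IFN-gamma mixture; protective hits raise ATP signal compared with cytokine alone wells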
Type: functional, cell-based
Details: Rattus norvegicus
The source made the active and inactive calls. No stated cut-off is given here; in the data, actives have a measured AC50 and inactives only a lower limit.
What AC50 was measured for each of the following?

Query: What value of measured AC50 is listed for "COC(=O)c1cccc(NC(=O)Nc2ccc(Cl)c(Cl)c2)c1" ?
Result: 6.38 µM (active)

Query: # input compound: "Cc1ccccc1N1CCN(Cc2c[nH]c3ccccc23)CC1" ; wanted: its AC50
Result: 7.61 µM (active)

Query: State the recorded AC50 for this entry: "CCCCCCCCCCCCCCCC[N+](C)(C)C"
Result: 4.84 µM (active)

Query: Would you kindly share the measured AC50 for "C/C(=N\NC(=O)c1nnn(-c2nonc2N)c1CN1CCc2ccccc21)c1ccccc1O" ?
Result: 1.98 µM (active)
